- measurement_target: Notum (Homo sapiens, UniProt Q6P988, C330S)
- Sequence (Q6P988 81-451 C330S): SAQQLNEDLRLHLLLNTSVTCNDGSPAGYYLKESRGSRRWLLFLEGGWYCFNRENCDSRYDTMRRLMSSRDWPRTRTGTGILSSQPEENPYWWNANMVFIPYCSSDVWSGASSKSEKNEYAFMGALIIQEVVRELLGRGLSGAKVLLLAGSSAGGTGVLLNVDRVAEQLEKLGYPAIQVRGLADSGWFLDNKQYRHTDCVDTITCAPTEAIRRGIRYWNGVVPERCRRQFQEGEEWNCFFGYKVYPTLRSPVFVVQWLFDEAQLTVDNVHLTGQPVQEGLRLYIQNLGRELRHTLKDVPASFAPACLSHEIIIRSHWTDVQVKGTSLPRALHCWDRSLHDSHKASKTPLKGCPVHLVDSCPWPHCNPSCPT
- assay_conditions: supplementary CSV
Hi there, I'd appreciate the recorded LLE for every entry that follows.
Numbers only.

Worked cases, answers included:
compound: NCc1cc(-c2ccccc2)no1
measured_value: 3.7
//
compound: COc1cc(-c2ccccc2)nc(N)n1
measured_value: 0.7
//
compound: COCC(=O)Nc1nc(-c2ccccc2)cs1
measured_value: 1.6
//
compound: O=C(O)Cc1ccc(-c2ccccc2)cc1 [compound 14, 2-[(1,1’-Biphenyl)-4-yl]acetic acid]
measured_value: 0.9

Here's the next entry for you.
Ask: For the compound c1cnc(Oc2ccc(-c3cc[nH]n3)cc2)nc1 [compound 5, 2-[4-(1H-Pyrazol-3-yl)phenoxy]pyrimidine] , report LLE.
Reply: 1.3
